- Test Name: soluble on expression in E. coli; label from the status in PepcDB or PDB records
Measure: soluble on expression in E. coli

{"columns": ["Residue Sequence", "Recorded Result"],
 "data": [
  ["VVELPKTDEGLGFNIMGGKEQNSPIYISRVIPGGVADRHGGLKRGDQLLSVNGVSVEGEQHEKAVELLKAAQGSVKLVVR", "soluble"],
  ["MNLCRECYGIIGEGVVAEKCEACCNAFDRVEEFAEEIVKKMSEYEFETFNVGSRVWGSLKALQEYLSLKGIEYEIKQRFNTKLARAIEEKTGSKRTLNPDITVLFDLETFTFELQIRPVFIYGRYLKRVRNISQTRWLCGYCNGEGCEVCNFTGKKYVSSVEELIAMPAVRLFKARDAKLHGAGREDVDARMLGTGRPFVLEVIEPRKRFVDLKELEEAINSQKWVAVRDLEYTDAEKVREVKTERHRKTYRAKVVFEEKVERERLIEALESLKGEIRQRTPMRVSHRRADRVRVRRLYDARLIHHTGRVAVVEFEAEAGLYIKELVSGDNGRTRPSLAEKVGVNARVDRLDVIAVSLEHHHHHH", "soluble"]
]}

---

- Test Name: soluble on expression in E. coli; label from the status in PepcDB or PDB records
Measure: soluble on expression in E. coli

{"columns": ["Residue Sequence", "Recorded Result"],
 "data": [
  ["MSLGFKEYYRVFPTYTDINSQEYRSRIETLEPLLMKYMKKRGKVLDLACGVGGFSFLLEDYGFEVVGVDISEDMIRKAREYAKSRESNVEFIVGDARKLSFEDKTFDYVIFIDSIVHFEPLELNQVFKEVRRVLKPSGKFIMYFTDLRELLPRLKESLVVGQKYWISKVIPDQEERTVVIEFKSEQDSFRVRFNVWGKTGVELLAKLYFTKEAEEKVGNYSYLTVYNPKEGHHHHHH", "soluble"],
  ["MGSDKIHHHHHHMAFFDLPLEELKKYRPERYEEKDFDEFWEETLAESEKFPLDPVFERMESHLKTVEAYDVTFSGYRGQRIKGWLLVPKLEEEKLPCVVQYIGYNGGRGFPHDWLFWPSMGYICFVMDTRGQGSGWLKGDTPDYPEGPVDPQYPGFMTRGILDPRTYYYRRVFTDAVRAVEAAASFPQVDQERIVIAGGSQGGGIALAVSALSKKAKALLCDVPFLCHFRRAVQLVDTHPYAEITNFLKTHRDKEEIVFRTLSYFDGVNFAARAKIPALFSVGLMDNICPPSTVFAAYNYYAGPKEIRIYPYNNHEGGGSFQAVEQVKFLKKLFEKG", "soluble"],
  ["MSLKVSVIIPTYNERENLEELFSRIDNALQGLNYEIVVVDDDSPDRTWEKAQELSSKYPVKVIRRTKEKGLSSAVIRGFKEASGDVFVVMDADLQHPPEVIPKLIEAIKNGSDIAIGSRYVKGGKVENWPFYRKLISKGAIMVGRIALPKIRDIKDPVSGFFALRKEVVEGVELNPIGFKILMEILIKGKYSKVVEVPFTFGIRARGESKLKGKTIFEYLRHIYRLMKWEGEIDREGHHHHHH", "soluble"]
]}

---

- Test Name: soluble on expression in E. coli; label from the status in PepcDB or PDB records

{"columns": ["Residue Sequence", "soluble on expression in E. coli"],
 "data": [
  ["MGSDKIHHHHHHDDDNDYYRYALPNALVTVKPVADNSFFMQLDDSTTLLPVNMKNSPYGEKEVRALVNFDPVNESSGEYDKAVHINWIDSILTKPIAGDLGDKNDEVYGTDPVDMINDWVTIAEDGYLTLRFRTMWGNRSQAHFVNLLMSKDAENPYEVEFRHNAFGDVYGEPADGLVAFNLDSLPDTEGKTVKLKLKWKSFNGEKTAEFDYCTRKSTPANSAAITAGRSVLRLK", "not soluble"],
  ["AHHHHHHGSKWEEWKPFYERIVKEMGYSIEEDRRAAELLRDILMENDNYIIKEELNSIIMQKVYVFGAGPNLEEALKKGDFKDGTKIAADGATSALLEYGITPDVVVTDLDGRIRDLLEASRKAVMVVHAHGDNMDKLPLVVEFPLVLGTCQTEPLDIVYNFGGFTDGDRAAFLAEEMGAKEIVLVGFDFSGIVGKWSKPWLRDHTPAWESKMKKLKFARELLEWLKNNGRAKIIEFSI", "not soluble"],
  ["SRGMTPGSRLIDYQLIDSTEELAAILGCGHPSSIHKITRVRLANDIPMAIESSHIPFELAGELNESHFQSSIYDHIERYNSIPISRAKQELEPSAATTEEANILGIQKGAPVLLIKRTTYLQNGTAFEHAKSVYRGDRYTFVHYMDRLS", "not soluble"]
]}
